- System: Brain
- conditionNotes: rat, in vivo, 5 h, 0.1 µM
- Description: Unbound volume of distribution in Sprague-Dawley rat brain slices at 100 nM after 5 hrs
outcomeMeasure: Vdu (mL/g)
Your answer is read as mL/g, so omit the unit and give the number.

Nc1nnc(-c2cccc(Cl)c2Cl)c(N)n1 [LAMOTRIGINE]: 4.6
CC(C)(C)NC(=O)[C@@H]1C[C@@H]2CCCC[C@@H]2CN1C[C@@H](O)[C@H](Cc1ccccc1)NC(=O)[C@H](CC(N)=O)NC(=O)c1ccc2ccccc2n1: 208
CN/C(=N/CCSCc1nc[nH]c1C)NC#N [CIMETIDINE]: 2.3

Which Vdu is listed for O=C1OC2(c3ccc(O)cc3Oc3cc(O)ccc32)c2ccccc21 [FLUORESCEIN] ?
1.8

How about C=CCc1ccccc1OCC(O)CNC(C)C (stereo unspecified) [ALPRENOLOL] ?
50

Would you kindly repeat that for C=CCOc1ccccc1OCC(O)CNC(C)C (stereo unspecified) [OXPRENOLOL] ?
11.8

* * *

- protocol: Dissociation constant, pKa of the basic compound by capillary electrophoresis-mass spectrometry analysis
- Assay type: physicochemical
Definition: the class of an entry is the range in b0: < 3; b1: ≥ 3 and < 4; b2: ≥ 4 that contains its pKa.

Before answering, review these 5 worked examples.
CN1CC[C@]23c4c5ccc(O)c4O[C@H]2[C@@H](O[C@@H]2O[C@H](C(=O)O)[C@@H](O)[C@H](O)[C@H]2O)C=C[C@H]3[C@H]1C5 [MORPHINE GLUCURONIDE]: b2
O=C1c2c(O)ccc(O)c2C(=O)c2c(NCCNCCO)ccc(NCCNCCO)c21 [MITOXANTRONE]: b1
CCCC(C)C1(CC)C(=O)NC(=S)NC1=O (centres undefined) [THIOPENTAL]: b2
O=C(O)c1cc(/N=N/c2ccc(S(=O)(=O)Nc3ccccn3)cc2)ccc1O [SULFASALAZINE]: b0
CO[C@@]1(NC(=O)C(C(=O)O)c2ccc(O)cc2)C(=O)N2C(C(=O)O)=C(CSc3nnnn3C)CO[C@@H]21 (some centres undefined) [MOXALACTAM]: b0

Category lookup for the compound CCn1cc(C(=O)O)c(=O)c2cc(F)c(N3CCNCC3)cc21 [NORFLOXACIN]
b2

Next up: CO[C@H]1/C=C/O[C@@]2(C)Oc3c(C)c(O)c4c(O)c(c(/C=N/N5CCN(C)CC5)c(O)c4c3C2=O)NC(=O)/C(C)=C\C=C\[C@H](C)[C@H](O)[C@@H](C)[C@@H](O)[C@@H](C)[C@H](OC(C)=O)[C@@H]1C [RIFAMPIN]
b0

Next compound up: NCC(CC(=O)O)c1ccc(Cl)cc1 (centres undefined) [BACLOFEN]
b1

* * *

- protocol: in vivo
- conditionNotes: Sprague-Dawley, rat, brain
Please use MET whenever Kp uu is not below 3, and NOT MET whenever it is.

Would you please look over these solved cases?
CC(C)NCC(O)COc1cccc2[nH]ccc12 (centres undefined) [PINDOLOL]: NOT MET
COc1ccc2c3c1O[C@H]1[C@@H](O)C=C[C@H]4[C@@H](C2)N(C)CC[C@@]341 [CODEINE]: NOT MET
CSc1ccc2c(c1)N(CCC1CCCCN1C)c1ccccc1S2 (centres undefined) [THIORIDAZINE]: NOT MET

Hi, just wondering whether CC(C)(C)NC(=O)[C@@H]1C[C@@H]2CCCC[C@@H]2CN1C[C@@H](O)[C@H](Cc1ccccc1)NC(=O)[C@H](CC(N)=O)NC(=O)c1ccc2ccccc2n1 shows Kp uu of 3 or higher.
NOT MET

Repeat for the following compound: Nc1nnc(-c2cccc(Cl)c2Cl)c(N)n1 [LAMOTRIGINE]
NOT MET

Please give the result for CN(Cc1cnc2nc(N)nc(N)c2n1)c1ccc(C(=O)N[C@@H](CCC(=O)O)C(=O)O)cc1 [METHOTREXATE] too.
NOT MET

Likewise for C=C[C@H]1C[N@@]2CC[C@H]1C[C@H]2[C@H](O)c1ccnc2ccc(OC)cc12 [QUININE] ?
MET

Also need CC[N+](CC)(CC)CC [TETRYLAMMONIUM] , thanks.
MET

Same read-out for O=C(O)c1ccccc1O [SALICYLIC ACID] ?
NOT MET

* * *

- protocol: physchem
- Description: Dissociation constant, pKa of the acidic compound by capillary electrophoresis-mass spectrometry analysis
outcomeMeasure: pKa
Respond with the number and no other words.

Example entries begin here.
CN/C(=N/CCSCc1nc[nH]c1C)NC#N: 7
Cc1c(O)cccc1C(=O)N[C@@H](CSc1ccccc1)[C@H](O)CN1C[C@H]2CCCC[C@H]2C[C@H]1C(=O)NC(C)(C)C: 6.3
COc1ccc2c3c1O[C@H]1[C@@H](O)C=C[C@H]4[C@@H](C2)N(C)CC[C@@]341: 8.4
CN(C)CCC=C1c2ccccc2CCc2ccccc21: 9.5
NCC1(CC(=O)O)CCCCC1: 10.5
Cc1ncc2n1-c1ccc(Cl)cc1C(c1ccccc1F)=NC2: 5.4

Query compound follows.
// returns reported pKa for input NCC(CC(=O)O)c1ccc(Cl)cc1 (configuration not stated)
9.7

* * *

# key: entry, value: Kp uu
- protocol: in vivo
- conditionNotes: Sprague-Dawley, rat, brain and plasma
Give your answer as a number; write no unit.

Solved entries (count: 4):
CN1CC[C@]23c4c5ccc(O[C@@H]6O[C@H](C(=O)O)[C@@H](O)[C@H](O)[C@H]6O)c4O[C@H]2[C@@H](O)C=C[C@H]3[C@H]1C5 [MORPHINE 3-GLUCURONIDE]: 0.58
O=C1c2c(O)ccc(O)c2C(=O)c2c(NCCNCCO)ccc(NCCNCCO)c21: 8.01
C[n+]1ccc(-c2ccccc2)cc1: 77
CC(NC(C)(C)C)C(=O)c1cccc(Cl)c1 (stereo unspecified): 2.66

Recorded Kp uu of CN1CC[C@]23c4c5ccc(O)c4O[C@H]2[C@@H](O[C@@H]2O[C@H](C(=O)O)[C@@H](O)[C@H](O)[C@H]2O)C=C[C@H]3[C@H]1C5 [MORPHINE GLUCURONIDE] , please.
0.86

Would you mind doing CC(=O)O[C@H]1C(=O)[C@@]2(C)[C@H]([C@H](OC(=O)c3ccccc3)[C@]3(O)C[C@H](OC(=O)[C@H](O)[C@@H](NC(=O)c4ccccc4)c4ccccc4)C(C)=C1C3(C)C)[C@]1(OC(C)=O)CO[C@@H]1C[C@@H]2O as well?
9.03

Now try CN(C)CCC=C1c2ccccc2CCc2ccccc21 .
3.08

* * *

- protocol: in vitro
- conditionNotes: Sprague-Dawley, rat, brain homogenate
Threshold 0.6: fraction unbound at 5 µM strictly smaller gives satisfied, otherwise not satisfied.

I wonder whether C[n+]1ccc(-c2ccccc2)cc1 has fraction unbound at 5 µM below 0.6. Can you tell?
satisfied

Query CN1CC[C@]23c4c5ccc(O)c4O[C@H]2C(=O)CC[C@@]3(O)[C@H]1C5 [OXYMORPHONE] next
not satisfied

Please do the same for CN1CC[C@]23c4c5ccc(O)c4O[C@H]2[C@@H](O[C@@H]2O[C@H](C(=O)O)[C@@H](O)[C@H](O)[C@H]2O)C=C[C@H]3[C@H]1C5 [MORPHINE GLUCURONIDE] as well.
not satisfied

Entry to check: CCn1cc(C(=O)O)c(=O)c2cc(F)c(N3CCNCC3)cc21 [NORFLOXACIN]
satisfied

What about this compound? Cc1c(O)cccc1C(=O)N[C@@H](CSc1ccccc1)[C@H](O)CN1C[C@H]2CCCC[C@H]2C[C@H]1C(=O)NC(C)(C)C
satisfied

* * *

- Test system: Brain
- conditionNotes: rat, in vivo, 5 h, 0.1 µM
Lab note - cut at 6 mL/g for Vdu: True if strictly below, False if not.

COc1ccc2c(c1)c(CC(=O)O)c(C)n2C(=O)c1ccc(Cl)cc1: False
CC(C)Nc1cccnc1N1CCN(C(=O)c2cc3cc(NS(C)(=O)=O)ccc3[nH]2)CC1: False
Nc1c2c(nc3ccccc13)CCCC2: False
CCNC(=O)C(C(N)=O)c1ccccc1 (stereo not given): True
CCn1cc(C(=O)O)c(=O)c2cc(F)c(N3CCNCC3)cc21: True

Find out if reported Vdu for CC[N+](CC)(CC)CC is less than 6 mL/g
False

Also CO[C@@]1(NC(=O)C(C(=O)O)c2ccc(O)cc2)C(=O)N2C(C(=O)O)=C(CSc3nnnn3C)CO[C@@H]21 (stereo not given in full) ?
True

Request: NC12CC3CC(CC(C3)C1)C2
False

Next compound up: COc1ccc2c3c1O[C@H]1[C@@H](O)C=C[C@H]4[C@@H](C2)N(C)CC[C@@]341
True

Try this compound next: CSc1ccc2c(c1)N(CCC1CCCCN1C)c1ccccc1S2 (stereo not given)
False

* * *

- protocol: in vivo
- conditionNotes: Sprague-Dawley, rat, brain and plasma
Reported Kp uu values for a set of molecules
Number only, no unit.

O=C(O)Cc1ccccc1Nc1c(Cl)cccc1Cl: 0.61
CN1CC[C@]23c4c5ccc(O)c4O[C@H]2C(=O)CC[C@@]3(O)[C@H]1C5: 2.97
NCC1(CC(=O)O)CCCCC1: 4.55
CC1(C)O[C@@H]2[C@@H](CO[C@@]3(COS(N)(=O)=O)OC(C)(C)O[C@@H]23)O1 [TOPIRAMATE]: 1.96
CN(C)C(=N)N=C(N)N: 9.51
Cc1ncc2n1-c1ccc(Cl)cc1C(c1ccccc1F)=NC2: 0.74
CN(C)C(=O)C(CCN1CCC(O)(c2ccc(Cl)cc2)CC1)(c1ccccc1)c1ccccc1 [LOPERAMIDE]: 2.95
CN(C)C(=O)Oc1cccc([N+](C)(C)C)c1: 3.07

// next entry
Kp uu lookup needed for Cc1c(O)cccc1C(=O)N[C@@H](CSc1ccccc1)[C@H](O)CN1C[C@H]2CCCC[C@H]2C[C@H]1C(=O)NC(C)(C)C , thanks.
0.62
